pIC50 values by entry
# Tested on: H9 acute lymphoblastic leukemia cells
# Assay Procedure: MTT cytotoxicity assay, H9
# Assay type: cell-based, human
# Condition Context: 48 h exposure, read-out: IC50 ± SD, H9
Please express pIC50 as -log10 of the molar concentration.

[
  {
    "Molecule": "O=C(c1ccccn1)[N]([Pd][Cl])C(c1ccccc1)P(=O)(c1ccccc1)c1ccccc1 (centres unmarked) [complex 3b, [κ^3-O,N,N-(L)Pd(II)Cl]]",
    "Numeric Result": 5.49
  }
]

// next entry
In: Any idea what pIC50 came out for O=C(c1ccccn1)[N](CP(=O)(c1ccccc1)c1ccccc1)[Pd][Cl] [complex 3a, [κ^3-O,N,N-(L)Pd(II)Cl]] on H9 acute lymphoblastic leukemia cells?
Out: 4.64

Every entry's value here was drawn from paper PMC10146186.
